B1: KRT13 (parent)
chain: KTIEELRDKILTATIENNRVILEI

Variants of: B1
Assay: protein stability index of a GFP-peptide fusion (GPS, HEK-293T) (PSI 1-6); higher = more stable;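 also: lentivirally expressed fusions sorted by FACS into six bins by GFP to DsRed ratio, PSI derived from sequencing read proportions per bin multiplied by bin number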
Conditions: c terminus: a fixed tail appended
measure: protein stability index
Please respond with just the number, no unit label.

Give the reported value of protein stability index for this record: I24Y
2.16

Give the reported value of protein stability index for this record: K1I
2.74

Give the reported value of protein stability index for this record: I24F
3

Give the reported value of protein stability index for this record: T14M
2.52

Give the reported value of protein stability index for this record: E23K
1.25

Give the reported value of protein stability index for this record: N17M
2.57

Give the reported value of protein stability index for this record: L22G
1.8

Give the reported value of protein stability index for this record: T12P
2.42

Give the reported value of protein stability index for this record: N17L
1.78

Give the reported value of protein stability index for this record: I10A
2.17

Give the reported value of protein stability index for this record: I24G
2.63

Give the reported value of protein stability index for this record: T2M
2.73

Give the reported value of protein stability index for this record: L6V
2.23

Give the reported value of protein stability index for this record: I21L
2.52

Give the reported value of protein stability index for this record: E4A
1.85

Give the reported value of protein stability index for this record: E4L
4.03

Give the reported value of protein stability index for this record: A13S
3.69

Give the reported value of protein stability index for this record: V20R
1.72

Give the reported value of protein stability index for this record: K1W
3.79

Give the reported value of protein stability index for this record: E16H
2.52

Give the reported value of protein stability index for this record: I21S
1.55

Give the reported value of protein stability index for this record: T2N
2.12

Give the reported value of protein stability index for this record: V20A
1.82
